Values were extracted from the supplement of paper PMC7877785.

self-splicing fitness (ln) listing for selected sequences.
Test: self-splicing fitness, log relative to wild type (ln ratio); higher = more splicing; Tetrahymena group I intron in knt gene, E. coli kanamycin selection, DiMSum; sequences stand for … in CUCUCU…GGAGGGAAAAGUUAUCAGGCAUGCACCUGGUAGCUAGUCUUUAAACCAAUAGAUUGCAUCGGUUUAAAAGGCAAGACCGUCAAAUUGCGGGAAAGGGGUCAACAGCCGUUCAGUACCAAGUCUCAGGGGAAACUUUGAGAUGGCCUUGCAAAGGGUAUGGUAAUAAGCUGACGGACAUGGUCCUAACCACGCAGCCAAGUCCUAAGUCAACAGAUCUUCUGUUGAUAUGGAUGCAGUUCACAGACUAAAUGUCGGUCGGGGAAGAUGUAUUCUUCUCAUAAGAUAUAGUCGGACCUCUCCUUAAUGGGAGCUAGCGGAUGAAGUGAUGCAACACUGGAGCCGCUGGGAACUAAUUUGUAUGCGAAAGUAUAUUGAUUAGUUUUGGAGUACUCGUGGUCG;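 also: selection with 25 µg/mL kanamycin versus none on LB agar overnight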
Conditions: 30 °C

seq	self-splicing fitness (ln)
ACGGAGCAAUAUUACGAUUC	-2.11
CAACAGCAAUAUUACGGCAG	-0.117
CCUGAGCAAUAUUACGUCAG	-2.64
AACUAGCAAUAUUACGAAAA	-1.53
CCCCAGCAAUAUUACGUGCA	-4.13
UUGAAGCAAUAUUACGACAU	0.0991
GGUCAGCAAUAUUACGGCAG	-0.557
ACUUAGCAAUAUUACGGAUU	-1.18
UCCUAGCAAUAUUACGUCCU	-3.56
AAAGAGCAAUAUUACGGAUU	-0.754
AGGUAGCAAUAUUACGCACG	-0.782
GCCUAGCAAUAUUACGUCCA	-2.37
AAGUAGCAAUAUUACGCUAA	-1.81
UGGUAGCAAUAUUACGUGGG	-3.64
CCGCAGCAAUAUUACGAGGC	-3.72
UGACAGCAAUAUUACGUCAG	-2.12
GGACAGCAAUAUUACGGGAC	-1.56
GCCCAGCAAUAUUACGACGA	-1.31
UGUUAGCAAUAUUACGCUGA	-2.26
AGUCAGCAAUAUUACGCCAU	-2.86
GGCGAGCAAUAUUACGGCAC	-1.36
CUCCAGCAAUAUUACGACCU	-3.4
CCGAAGCAAUAUUACGGAAA	-3.26
AUUGAGCAAUAUUACGUAUA	-2.67
GCCAAGCAAUAUUACGACUU	-2.29
UGACAGCAAUAUUACGGUGA	-0.731
AGUGAGCAAUAUUACGGUUG	-3.38
UUGCAGCAAUAUUACGGUCU	-2.05
ACUAAGCAAUAUUACGUAGG	-1.4
GACUAGCAAUAUUACGCGAU	-2.8
AGUCAGCAAUAUUACGGCCU	0.247
CGUCAGCAAUAUUACGAUGU	-1.73
CUUAAGCAAUAUUACGCAAG	-3.07
GGCUAGCAAUAUUACGACGA	-1.31
GUGCAGCAAUAUUACGGGGA	-4.16
ACGUAGCAAUAUUACGUGUA	-2.51
GCCUAGCAAUAUUACGCAUU	-0.686
AAUGAGCAAUAUUACGGUGA	-3.31
UAUAAGCAAUAUUACGUCUU	-1
GAGCAGCAAUAUUACGUGUG	-3.28
